Target: UniProt O43193
Assay: In vitro effective concentration towards human motilin receptor
pEC50: −log10 of the molar value.
endpoint_name: pEC50

>  <compound>
NC(=O)[C@H](CCc1ccccc1)NC(=O)C1C=CC2(CCNCC2)n2c(=O)n(Cc3ccc4c(c3)OCO4)c(=O)n21 (stereo in doubt; 13B)

>  <measured_result>
< 5.00

$$$$
>  <compound>
NC(=O)[C@H](CCc1ccccc1)NC(=O)C1C=CC2(CCNCC2)n2c(=O)n(Cc3ccc4c(c3)OCO4)c(=O)n21 (stereo in doubt; 1A)

>  <measured_result>
< 5.00

$$$$
>  <compound>
NC(=O)[C@H](CCc1ccccc1)NC(=O)[C@H](CCc1ccccc1)NC(=O)C1C=CC2(CCNCC2)n2c(=O)n(Cc3ccc4c(c3)OCO4)c(=O)n21 (stereo partly drawn)

>  <measured_result>
9.66

$$$$
>  <compound>
C[C@H](NC(=O)C1C=CC2(CCNCC2)n2c(=O)n(Cc3ccc4c(c3)OCO4)c(=O)n21)C(N)=O (stereo partly drawn)

>  <measured_result>
< 5.00

$$$$
>  <compound>
NC(=O)[C@@H](CCc1ccccc1)NC(=O)C1C=CC2(CCNCC2)n2c(=O)n(Cc3ccc4c(c3)OCO4)c(=O)n21 (stereo partly drawn)

>  <measured_result>
< 5.00

$$$$

Q. What measured pEC50 is associated with CC[C@H]1OC(=O)[C@H](C)[C@@H](O[C@H]2C[C@@](C)(OC)C[C@@H](C)O2)[C@H](C)[C@@H](O[C@@H]2O[C@H](C)C[C@H](N(C)CC)[C@H]2O)[C@@]2(C)CC(C)=C(O2)[C@H](C)[C@@H](O)[C@H]1C on UniProt O43193?
A. 8.38

Q. What measured pEC50 is associated with COC(=O)[C@@H](CCc1ccccc1)NC(=O)C1C=CC2(CCNCC2)n2c(=O)n(Cc3ccc4c(c3)OCO4)c(=O)n21 (stereo partly drawn) on UniProt O43193?
A. < 5.00

Q. What measured pEC50 is associated with NC(=O)[C@@H](Cc1ccccc1)NC(=O)C1C=CC2(CCNCC2)n2c(=O)n(Cc3ccc4c(c3)OCO4)c(=O)n21 (stereo partly drawn) on UniProt O43193?
A. 5.38

---

Let's go through some recorded Ki values for Motilin receptor (Homo sapiens) together.
Report only the number, with the unit µM understood.

>  <compound>
NC(=O)[C@@H](CCc1ccccc1)NC(=O)[C@@H](CCc1ccccc1)NC(=O)C1CCC2(CCNCC2)n2c(=O)n(Cc3ccc4c(c3)OCO4)c(=O)n21 (some centres not stated)

>  <Ki (µM)>
0.0027

$$$$
>  <compound>
NC(=O)[C@H](CCc1ccccc1)NC(=O)[C@H](CCc1ccccc1)NC(=O)C1C=CC2(CCNCC2)n2c(=O)n(Cc3ccc4c(c3)OCO4)c(=O)n21 (some centres not stated)

>  <Ki (µM)>
0.002

$$$$
>  <compound>
CC[C@H]1OC(=O)[C@H](C)[C@@H](O[C@H]2C[C@@](C)(OC)C[C@@H](C)O2)[C@H](C)[C@@H](O[C@@H]2O[C@H](C)C[C@H](N(C)CC)[C@H]2O)[C@@]2(C)CC(C)=C(O2)[C@H](C)[C@@H](O)[C@H]1C

>  <Ki (µM)>
0.0034

$$$$
>  <compound>
NC(=O)[C@H](CCc1ccccc1)NC(=O)C1C=CC2(CCNCC2)n2c(=O)n(Cc3ccc4c(c3)OCO4)c(=O)n21 (stereo in doubt; 1A)

>  <Ki (µM)>
5.8

$$$$

Lab note: next compound to report on.
Q. So what does the record say about Ki for NC(=O)[C@H](CCc1ccccc1)NC(=O)C1C=CC2(CCNCC2)n2c(=O)n(Cc3ccc4c(c3)OCO4)c(=O)n21 (stereo in doubt; 1B) ?
A. 4.1

---

Target: Motilin receptor (Homo sapiens)
Sequence (O43193 whole entry): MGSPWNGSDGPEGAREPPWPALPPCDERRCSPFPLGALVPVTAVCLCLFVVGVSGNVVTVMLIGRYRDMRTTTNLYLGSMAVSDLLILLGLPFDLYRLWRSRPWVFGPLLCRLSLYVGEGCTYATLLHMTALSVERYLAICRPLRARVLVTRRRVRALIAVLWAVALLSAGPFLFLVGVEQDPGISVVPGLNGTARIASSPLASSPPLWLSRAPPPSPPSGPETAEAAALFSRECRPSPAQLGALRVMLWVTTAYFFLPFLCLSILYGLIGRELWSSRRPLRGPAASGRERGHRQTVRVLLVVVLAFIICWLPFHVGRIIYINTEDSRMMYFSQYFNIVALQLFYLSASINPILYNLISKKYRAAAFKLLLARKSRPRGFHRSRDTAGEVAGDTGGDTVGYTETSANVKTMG
Assay: In vitro effective concentration towards human motilin receptor
Format: functional
endpoint_name: pEC50
API: returns pEC50 as number; meaning -log10 of concentration in mol/L.

Reference set, count: 3
>  <compound>
NC(=O)[C@H](CCc1ccccc1)NC(=O)[C@H](CCc1ccccc1)NC(=O)C1CCC2(CCNCC2)n2c(=O)n(Cc3ccc4c(c3)OCO4)c(=O)n21 (stereo in doubt; 11)

>  <endpoint_name>
pEC50

>  <measured_result>
9.46

$$$$
>  <compound>
NC(=O)[C@@H](CCc1ccccc1)NC(=O)[C@@H](CCc1ccccc1)NC(=O)C1CCC2(CCNCC2)n2c(=O)n(Cc3ccc4c(c3)OCO4)c(=O)n21 (stereo partly specified)

>  <endpoint_name>
pEC50

>  <measured_result>
8.14

$$$$
>  <compound>
NC(=O)[C@H](CCc1ccccc1)NC(=O)C1C=CC2(CCNCC2)n2c(=O)n(Cc3ccc4c(c3)OCO4)c(=O)n21 (stereo in doubt; 1B)

>  <endpoint_name>
pEC50

>  <measured_result>
6.25

$$$$

Q. So what does the record say about pEC50 for NC(=O)[C@H](CCc1ccccc1)NC(=O)[C@H](CCc1ccccc1)NC(=O)C1CCC2(CCNCC2)n2c(=O)n(Cc3ccc4c(c3)OCO4)c(=O)n21 (stereo in doubt; 11A) ?
A. 10.33
